I'd be grateful if you could share measured Ki for these entries.
# TESTED_ON: UniProt:P35372
# Sequence (P35372 whole entry, species assumed): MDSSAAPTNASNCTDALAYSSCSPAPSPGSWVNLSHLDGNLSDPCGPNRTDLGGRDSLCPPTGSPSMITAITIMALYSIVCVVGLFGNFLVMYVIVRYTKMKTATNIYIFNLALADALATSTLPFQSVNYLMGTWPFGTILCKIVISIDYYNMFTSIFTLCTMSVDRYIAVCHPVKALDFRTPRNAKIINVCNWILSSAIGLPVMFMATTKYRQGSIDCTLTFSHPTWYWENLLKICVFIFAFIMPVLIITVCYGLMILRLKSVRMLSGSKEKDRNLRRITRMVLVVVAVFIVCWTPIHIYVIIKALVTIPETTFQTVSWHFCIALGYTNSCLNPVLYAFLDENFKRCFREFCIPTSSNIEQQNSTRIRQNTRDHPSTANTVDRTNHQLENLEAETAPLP
# PROCEDURE_TEXT: μ-opioid receptor radioligand binding assay ([3H]-diprenorphine)
# Parameters: purchased Perkin Elmer, Shelton, Conn; host or cells: HEK-293 or CHO
# CONDITION_NOTES: HEK-293 or CHO cells; read-out: Ki (nM) Opioid Receptor μ
# Experimental: μ-opioid Receptor Binding Assay Procedures: Radioligand dose-displacement binding assays for μ-opioid receptors used 0.3 nM [^3H]-diprenorphine (Perkin Elmer, Shelton, Conn.), with […] membrane protein/well in a final volume of 500 μl binding buffer (10 mM MgCl2, 1 mM EDTA, 5% DMSO, 50 mM HEPES, pH 7.4). […] The data were analyzed using the one-site competition curve fitting functions in GraphPad PRISM™ v. […]
Please state the value followed by its unit.

{"RECORD_SMILES": "C[C@H]1[C@H]2Cc3ccc(O)cc3[C@]1(CCNC(=O)Cc1ccc(C(=O)O)cc1)CCN2CC1CC1", "RESULT": "25.1 nM"}
{"RECORD_SMILES": "C[C@H]1[C@H]2Cc3ccc(O)cc3[C@]1(CCCC(N)=O)CCN2CC1CCC1", "RESULT": "1.82 nM"}
{"RECORD_SMILES": "COC(=O)[C@H](C)NCC[C@]12CCN(CC3CC3)[C@H](Cc3ccc(OC)cc31)[C@@H]2C", "RESULT": "94.7 nM"}

### Prompt Please give the measured Ki for this molecule: CC(C)C[C@H](NCCCC[C@]12CCN(CC3CC3)[C@H](Cc3ccc(O)cc31)[C@@H]2C)C(=O)O
### Response 2.89 nM

* * *

# TESTED_ON: UniProt:P35372
# PROCEDURE_TEXT: μ-opioid receptor GTPγS functional assay, U2OS cells
# CONDITION_NOTES: read-out: GTPγS μ Emax
PROPERTY_NAME: Emax (%)
Answers are plain numbers, in %.

Recorded Emax, per entry:
{"RECORD_SMILES": "COc1ccc2c(c1)[C@]1(CCN3CCC(N(C4CC4)S(=O)(=O)c4ccc(Cl)cc4)CC3)CCN(C)[C@H](C2)[C@@H]1C", "Emax (%)": 63.3}
{"RECORD_SMILES": "C[C@H]1[C@H]2Cc3ccc(O)cc3[C@]1(CC(=O)NCCc1ccc(S(N)(=O)=O)cc1)CCN2C", "Emax (%)": 49.7}
{"RECORD_SMILES": "C[C@H]1[C@H]2Cc3ccc(O)cc3[C@]1(CCNS(=O)(=O)C1CC1)CCN2CC1CC1", "Emax (%)": 30.7}

### Prompt Name the recorded Emax for C[C@H]1[C@H]2Cc3ccc(O)cc3[C@]1(CCNC(=O)c1ccc(C(=O)O)cc1)CCN2CC1CC1 .
### Response 57.3

* * *

Give Emax for every item shown.
# TESTED_ON: κ-opioid receptor (Homo sapiens)
# Sequence (P41145 whole entry): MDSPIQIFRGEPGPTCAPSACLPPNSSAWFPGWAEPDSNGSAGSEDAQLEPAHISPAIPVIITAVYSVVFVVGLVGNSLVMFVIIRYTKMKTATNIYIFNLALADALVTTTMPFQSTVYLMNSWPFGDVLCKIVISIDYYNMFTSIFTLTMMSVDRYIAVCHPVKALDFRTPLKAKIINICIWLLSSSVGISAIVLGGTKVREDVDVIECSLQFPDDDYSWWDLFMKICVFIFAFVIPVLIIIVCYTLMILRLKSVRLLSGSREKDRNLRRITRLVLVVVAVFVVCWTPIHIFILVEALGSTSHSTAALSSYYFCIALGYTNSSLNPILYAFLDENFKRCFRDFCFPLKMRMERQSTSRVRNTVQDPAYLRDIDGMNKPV
# PROCEDURE_TEXT: κ-opioid receptor [35S]GTPγS functional assay, HEK-293 or CHO cells
# Assay type: biochemical
# Parameters: expressed in transfected cells; host or cells: HEK-293
# CONDITION_NOTES: HEK-293 or CHO cells; relative to U69,593
# Experimental: Plates were incubated for 30 min at a temperature of about 25° C. with shaking.
// return the numeric value with its unit appended

{"RECORD_SMILES": "COC(=O)[C@H](Cc1ccccc1)NCCCC[C@]12CCN(CC3CC3)[C@H](Cc3ccc(O)cc31)[C@@H]2C", "Emax": "61.7%"}
{"RECORD_SMILES": "COc1ccc2c(c1)[C@]1(CCO)CCN(CC3CC3)[C@H](C2)[C@@H]1C", "Emax": "97.7%"}
{"RECORD_SMILES": "C[C@H]1[C@H]2Cc3ccc(O)cc3[C@]1(CCN1CCS(=O)(=O)CC1)CCN2C", "Emax": "26.6%"}
{"RECORD_SMILES": "C[C@H]1[C@H]2Cc3ccc(O)cc3[C@]1(CCCC(=O)N(C)C)CCN2CC1CCC1", "Emax": "95.3%"}
{"RECORD_SMILES": "C[C@H]1[C@H]2Cc3ccc(O)cc3[C@]1(CCCCN[C@@H](CCCCN)C(=O)O)CCN2CC1CC1", "Emax": "104%"}
{"RECORD_SMILES": "C[C@H]1[C@H]2Cc3ccc(O)cc3[C@]1(CCO)CCN2C", "Emax": "37.1%"}

Look at each molecule and report its Emax.
1. C[C@H]1[C@H]2Cc3ccc(O)cc3[C@]1(CCNC(=O)c1ccc(C(=O)O)cc1)CCN2CC1CC1
2. COc1ccc2c(c1)[C@]1(CCNCC(=O)O)CCN(CC3CC3)[C@H](C2)[C@@H]1C
3. C[C@H]1[C@H]2Cc3ccc(O)cc3[C@]1(CCNC(=O)Cc1ccc(C(=O)O)cc1)CCN2CC1CC1

### Response
91.3%
69%
88.7%
